List of pKd values.
B1: bovine Ric8A1–492 [bovine] / Gαt333–350 [modified: biotin on the N-terminus (in the BLI assays); biotin on the N-terminus (in the BLI assays)] [not stated] (parent)
chain 1: MEPRAVADALETGEEDVVMEALRAYNRENSQSFTFDDAQQEDRKRLAKLLVSVLEQGLPPSRRVIWLQSIRILSRDRSCLDSFTSRRSLQALACYAGISASQGSVPEPLNMDVVLESLKCLCNLVLSSPVAQALAAEAGLVVRLAERVGLCRQSSFPHDVQFFDLRLLFLLTALRTDVRQQLFQELQGVRLLTRALELTLGMTEGERHPELLPPQETERAMEILKVLFNITFDSIKREVDEEDAALYRHLGTLLRHCVMLAAAGDRTEELHGHAVNLLGNLPVKCLDVLLTLEPHEGSLEFLGVNMDVIRVLLSFMEKRLHQTHRLKESVAPVLSVLTECARMHRPARKFLKAQVLPPLRDVRTRPEVGELLRNKLVRLMTHLDTDVKRVAAEFLFVLCSESVPRFIKYTGYGNAAGLLAARGLMAGGRPEGQYSEDEDTDTDEYKEAKASINPVTGRVEEKPPNPMEGMTEEQKEHEAMKLVNMFDKLSRH
chain 2: DAVTDIIIKENLKDCGLF

- Variants of: B1
- ASSAY NOTES: BLI (steady-state)
- EXPERIMENTAL SETUP: with Gαt333–350 [modified: biotin on the N-terminus (in the BLI assays)
pKd: −log10 of the molar value.
MEASUREMENT TYPE: pKd

>>> print(df.to_string())
         changes  measurement_type  value_comparator  observed_measurement
0  chain 1 A173W               pKd                 <                  5.00
1  chain 1 F169R               pKd                 =                  5.74
